// values below are reported solubility
- Experiment Summary: Assessment of solubility: HT solubility in pION buffer, UV spectrophotometry
- Settings: pION system solution buffer, pH 4.5, pH 4.5, aqueous buffer, kinetic from dmso stock, Solubility (pH 4.5), pH 4.5 buffer, 16-19 h incubation, 1.0% DMSO
Quantity Kind: solubility (µg/mL)

>>> print(df.to_string())
                                   compound  quantity_kind  value_comparator  measured
0  Cc1ccc(OCc2ccc(C(=O)N3CCCCC3)cc2C)c(-c2csc(N3CC(C4(C(=O)O)CC4)C3)n2)c1     solubility                 <       0.1
1  Cc1ccc(OCc2ccc(CN3CCS(=O)(=O)CC3)cc2C)c(-c2csc(N3C[C@@H]4[C@H](C3)[C@@H]4C(=O)O)n2)c1     solubility                 =       2.6
2  Cc1cc(CN2CCS(=O)(=O)CC2)ccc1COc1ccc(C#N)cc1-c1csc(N2CCC(C(=O)O)C(C)C2)n1 (stereo not shown)     solubility                 =      0.45
3  Cc1ccc(OCc2ccc(CN3CCN(C(=O)C4CC4)CC3)cc2C#N)c(-c2csc(N3C[C@H]4CC[C@@H](C3)[C@H]4C(=O)O)n2)c1     solubility                 =      0.79
4  Cc1ccc(OCc2ccc(C(=O)N3CCCCCC3)cc2C)c(-c2csc(N3C[C@H]4CC[C@@H](C3)[C@H]4C(=O)O)n2)c1     solubility                 <       0.1
5  Cc1ccc(OCc2ccc(CN3CCOCC3)cc2C)c(-c2csc(NCCC(=O)O)n2)c1     solubility                 >        52
6  Cc1cc(C(=O)N2CCCCC2)ccc1COc1ccccc1-c1csc(C2=CCC(C(=O)O)CC2)n1 (stereo not shown)     solubility                 =      0.15

====

# reported solubility; entries follow
- Experiment Summary: Assessment of solubility: HT solubility in pION buffer, UV spectrophotometry
- Settings: pION system solution buffer, pH 4.5, pH 4.5, aqueous buffer, kinetic from dmso stock, Solubility (pH 4.5), pH 4.5 buffer, 16-19 h incubation, 1.0% DMSO
Quantity Kind: solubility

>>> df
                                   compound  quantity_kind    measured
0  Cc1ccc(OCc2ccc(C(=O)N3CCCCC3)cc2C)c(-c2csc(C3=CCC(C(=O)O)CC3)n2)c1 (stereo not shown)     solubility  0.15 µg/mL
1  Cc1cc(CN2CCOCC2)ccc1COc1ccccc1-c1csc(N2CCC(C(=O)O)CC2)n1     solubility  > 55 µg/mL
2  Cc1cc(C(=O)N2CCCCC2)ccc1COc1ccccc1-c1csc(N2CCC(C(=O)O)C(C(F)(F)F)C2)n1 (stereo not shown)     solubility   0.2 µg/mL
3  CNC(=O)C1CCN(Cc2ccc(COc3c(C)cccc3-c3csc(N4CCC(C(=O)O)CC4)n3)c(C)c2)CC1     solubility  > 57 µg/mL

====

- Experiment Summary: Assessment of solubility: HT solubility in pION buffer, UV spectrophotometry
- Settings: pION system solution buffer, pH 4.5, pH 4.5, aqueous buffer, kinetic from dmso stock, Solubility (pH 4.5), pH 4.5 buffer, 16-19 h incubation, 1.0% DMSO
Decision: solubility >= 1 µg/mL yields condition met, all other cases yield condition not met.

In [3]: df
Out[3]:
                                    compound     discrete_label
 0  Cc1ccc(OCc2ccc(CN3CCOCC3)cc2C)c(-c2csc(N3CCCC(C(=O)O)C3)n2)c1 (stereo not drawn)      condition met
 1  Cc1ccc(OCc2ccc(CN3CCOCC3)cc2C)c(-c2csc(N3CCC(C(=O)O)C(C(F)(F)F)C3)n2)c1 (stereo not drawn)      condition met
 2  Cc1ccc(OCc2ccc(C(=O)N(C)CC#N)cc2C)c(-c2csc(N3C[C@H]4CC[C@@H](C3)[C@H]4C(=O)O)n2)c1  condition not met
 3  Cc1ccc(OCc2ccc(CN3CCOCC3)cc2C)c(-c2csc(N3CC[C@@H](C(=O)O)C3)n2)c1 (single isomer, unassigned)      condition met
 4  CO[C@@H]1CCN(C(=O)c2ccc(COc3ccc(C)cc3-c3csc(N4C[C@H]5CC[C@@H](C4)[C@H]5C(=O)O)n3)c(C)c2)C1  condition not met
 5  Cc1ccc(OCc2ccc(C(=O)N3CC[C@H](N(C)C)C3)cc2C)c(-c2csc(N3C[C@H]4CC[C@@H](C3)[C@H]4C(=O)O)n2)c1      condition met
 6  Cc1ccc(OCc2ccc(CN3CCOCC3)cc2C)c(-c2csc(N3CC[C@]4(C(=O)O)C[C@@H]4C3)n2)c1      condition met
 7  Cc1cc(CN2CCOCC2)ccc1COc1c(C)cccc1-c1csc(N2C[C@H]3CC[C@@H](C2)[C@H]3C(=O)O)n1      condition met
 8  CCN1CCN(Cc2ccc(COc3ccc(C)cc3-c3csc(N4CC5CCC(C4)C5C(=O)O)n3)c(C)c2)CC1=O (stereo not drawn)  condition not met
 9  Cc1ccc(OCc2ccc(CNCC(C)(C)O)cc2C)c(-c2csc(N3CCC(C(=O)O)CC3)n2)c1      condition met
10  Cc1cc(C(=O)N2CCCCC2)ccc1COc1ccc(F)cc1-c1csc(N2CCC(C(=O)O)C(C)C2)n1 (stereo not drawn)  condition not met
11  Cc1ccc(OCc2ccc(CN3CCOCC3)cc2C)c(-c2csc(N3CCCC(C)(C(=O)O)CC3)n2)c1 (stereo not drawn)      condition met
12  CCc1cc(C(=O)N2CCN(C)C(=O)C2)ccc1COc1ccc(C)cc1-c1csc(N2C[C@H]3CC[C@@H](C2)[C@H]3C(=O)O)n1  condition not met
13  Cc1ccc(OCc2ccc(CN3CCOCC3)cc2C)c(-c2csc(N3CCC4(C(=O)O)CC4C3)n2)c1 (stereo not drawn)      condition met
14  Cc1cc(C(=O)N2CCCCC2)ccc1COc1ccccc1-c1csc(N2CCC(C(=O)O)CC2C)n1 (stereo not drawn)      condition met
15  Cc1ccc(OCc2ccc(C(=O)N3CC[C@@H](N(C)C)C3)cc2C)c(-c2csc(N3C[C@H]4CC[C@@H](C3)[C@H]4C(=O)O)n2)c1      condition met
16  Cc1ccc(OCc2ccc(CN3CCS(=O)(=O)CC3)cc2C)c(-c2csc(N3CCC(C(=O)O)C(C(F)(F)F)C3)n2)c1 (stereo not drawn)  condition not met
17  Cc1ccc(OCc2ccc(C(=O)N3CCn4cnnc4C3)cc2C)c(-c2csc(N3C[C@H]4CC[C@@H](C3)[C@H]4C(=O)O)n2)c1      condition met
18  Cc1ccc(OCc2ccc(CN3CCOCC3)cc2C#N)c(-c2csc(N3CC[C@@H](C(=O)O)[C@@H](C)C3)n2)c1 (relative stereo)      condition met
19  Cc1ccc(OCc2ccc(CN3CCOCC3)cc2C)c(-c2csc(NCCCC(=O)O)n2)c1      condition met
20  Cc1cc(CN2CCOCC2)ccc1COc1ccc(C#N)cc1-c1csc(N2CC3C(C2)C3C(=O)O)n1 (stereo not drawn)      condition met
21  Cc1ccc(OCc2ccc(CNC(C)(C)CO)cc2C#N)c(-c2csc(N3CCC(C(=O)O)CC3)n2)c1      condition met
22  Cc1ccc(OCc2ccc(C(=O)N3CCCCC3)cc2C)c(-c2csc(N3CC(CC(=O)O)C3)n2)c1  condition not met
23  Cc1ccc(OCc2ccc(C(=O)N3CCCC3)cc2C#N)c(-c2csc(N3CCC(C(=O)O)CC3)n2)c1      condition met
24  Cc1ccc(OCc2ccc(C(=O)N3CCC(CO)CC3)cc2C)c(-c2csc(N3C[C@H]4CC[C@@H](C3)[C@H]4C(=O)O)n2)c1  condition not met
25  Cc1cc(CN2CCOCC2)ccc1COc1ccc(Cl)cc1-c1csc(N2CCC(C(=O)O)CC2C)n1 (stereo not drawn)      condition met

====

- Assay Target: human soluble guanylate cyclase alpha 1 and beta 1 subunits (sGC) stably expressed in Chinese hamster ovary cells (Homo sapiens, UniProt Q02108+Q02153)
- Construct: expressed in transfected cells; host or cells: Chinese hamster ovary cells, stably transfected
- Sequence (Q02108 whole entry partner): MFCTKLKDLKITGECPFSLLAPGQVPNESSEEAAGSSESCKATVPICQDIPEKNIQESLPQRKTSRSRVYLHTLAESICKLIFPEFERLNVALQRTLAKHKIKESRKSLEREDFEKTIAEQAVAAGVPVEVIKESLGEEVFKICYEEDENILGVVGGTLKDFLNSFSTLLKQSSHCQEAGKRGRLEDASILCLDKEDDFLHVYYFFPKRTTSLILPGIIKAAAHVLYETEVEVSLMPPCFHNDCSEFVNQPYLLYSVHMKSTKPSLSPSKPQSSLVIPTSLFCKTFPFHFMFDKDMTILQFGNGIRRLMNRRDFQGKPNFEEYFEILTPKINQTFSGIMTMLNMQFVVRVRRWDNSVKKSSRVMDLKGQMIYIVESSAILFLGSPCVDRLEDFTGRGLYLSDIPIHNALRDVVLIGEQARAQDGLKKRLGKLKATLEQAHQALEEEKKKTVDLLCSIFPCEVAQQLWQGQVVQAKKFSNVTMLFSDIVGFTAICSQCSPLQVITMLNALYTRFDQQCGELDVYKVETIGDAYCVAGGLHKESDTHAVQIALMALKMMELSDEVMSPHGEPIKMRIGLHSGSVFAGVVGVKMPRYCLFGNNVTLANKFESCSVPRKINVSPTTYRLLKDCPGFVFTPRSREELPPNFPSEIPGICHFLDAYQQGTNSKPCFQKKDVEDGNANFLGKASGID
- Sequence (Q02153 whole entry): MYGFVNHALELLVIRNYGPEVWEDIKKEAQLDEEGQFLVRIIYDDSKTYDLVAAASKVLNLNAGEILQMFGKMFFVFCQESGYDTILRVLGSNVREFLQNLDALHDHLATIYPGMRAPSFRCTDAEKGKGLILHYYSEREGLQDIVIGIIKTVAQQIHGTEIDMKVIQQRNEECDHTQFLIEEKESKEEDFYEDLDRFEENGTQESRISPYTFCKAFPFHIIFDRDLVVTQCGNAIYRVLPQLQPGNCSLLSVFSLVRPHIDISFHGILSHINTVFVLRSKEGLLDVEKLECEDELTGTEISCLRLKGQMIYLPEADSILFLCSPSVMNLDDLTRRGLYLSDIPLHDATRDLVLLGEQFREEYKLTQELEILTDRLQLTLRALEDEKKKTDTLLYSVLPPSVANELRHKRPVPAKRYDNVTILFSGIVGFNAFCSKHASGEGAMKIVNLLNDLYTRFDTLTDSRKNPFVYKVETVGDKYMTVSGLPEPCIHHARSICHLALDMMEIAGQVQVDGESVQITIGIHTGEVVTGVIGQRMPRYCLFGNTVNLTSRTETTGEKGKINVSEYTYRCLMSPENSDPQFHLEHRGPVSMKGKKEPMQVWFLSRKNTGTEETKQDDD
- Experiment Summary: sGC cellular activator assay: cGMP in CHO cells expressing human sGC, preincubated with ODQ
- Type: cell-based
- Settings: 40 microM ODQ preincubation, 30 min at room temperature, presence or absence of 50% human serum not given, read-out: EC50 nM, Activity of Compounds in Cellular Assay
Quantity Kind: log10(EC50) (log10 of the value in nM)

>>> print(df.to_string())
                                    molecule  quantity_kind  measured
 0  Cc1ccc(OCc2ccc(C(=O)N3CC[C@@H](CO)C3)cc2C)c(-c2csc(N3C[C@H]4CC[C@@H](C3)[C@H]4C(=O)O)n2)c1    log10(EC50)      1.79
 1  Cc1ccc(OCc2ccc(C(=O)N3CCC(F)(F)CC3)cc2C)c(-c2csc(N3C[C@H]4CC[C@@H](C3)[C@H]4C(=O)O)n2)c1    log10(EC50)      1.30
 2  Cc1ccc(OCc2ccc(C(=O)N3C[C@H]4CC[C@@H](C3)O4)cc2C)c(-c2csc(N3C[C@H]4CC[C@@H](C3)[C@H]4C(=O)O)n2)c1    log10(EC50)      1.28
 3  Cc1ccc(OCc2ccc(CN3CCOCC3)cc2C#N)c(-c2csc(N3C[C@H]4CC[C@@H](C3)[C@H]4C(=O)O)n2)c1    log10(EC50)      1.32
 4  Cc1ccc(OCc2ccc(C(=O)N(C)CC3(CO)CC3)cc2C)c(-c2csc(N3C[C@H]4CC[C@@H](C3)[C@H]4C(=O)O)n2)c1    log10(EC50)      2.04
 5  Cc1ccc(OCc2ccc(CN3CCC(F)CC3)cc2C)c(-c2csc(N3CCC(C(=O)O)CC3)n2)c1    log10(EC50)      2.15
 6  Cc1ccc(OCc2ccc(CN3CCS(=O)(=O)CC3)cc2C)c(-c2csc(N3CCC(CC(=O)O)CC3)n2)c1    log10(EC50)      2.48
 7  Cc1ccc(OCc2ccc(C(=O)N3CCCCC3)cc2C)c(-c2csc(N3CC4(CC4C(=O)O)C3)n2)c1 (stereo not drawn)    log10(EC50)      2.04
 8  Cc1ccc(OCc2ccc(C(=O)N(C)Cc3cnn(C)c3)cc2C)c(-c2csc(N3C[C@H]4CC[C@@H](C3)[C@H]4C(=O)O)n2)c1    log10(EC50)      1.76
 9  CCc1cc(C(=O)N2CCCCC2)ccc1COc1ccc(C)cc1-c1csc(N2C[C@H]3CC[C@@H](C2)[C@H]3C(=O)O)n1    log10(EC50)      0.79
10  Cc1ccc(OCc2ccc(C(=O)N(C)Cc3ccnn3C)cc2C)c(-c2csc(N3C[C@H]4CC[C@@H](C3)[C@H]4C(=O)O)n2)c1    log10(EC50)      1.82
11  CCCC1(C(=O)O)C2CCC1CN(c1nc(-c3cc(C)ccc3OCc3ccc(C(=O)N4CCCCC4)cc3C)cs1)C2 (stereo not drawn)    log10(EC50)      2.99
